test system: bloodstream form T. brucei brucei; test: T. b. brucei whole cell parasite (trypanosome growth) assay; type: cell-based, Trypanosoma brucei brucei; conditions: Trypanosoma brucei, mean of two or more determinations; 69 h + 4 h resazurin; read-out: T. b. brucei EC50
reported_metric: EC50 (nM)
Report only the number, with the unit nM understood.

Examples with their reported EC50 follow.
{"molecule": "CNC(=O)C1Cc2ccccc2CN1C(=O)COc1ccc(F)cc1 (stereo not shown)", "experimental_value": 37000}
{"molecule": "CNC(=O)C1Cc2cc(F)ccc2N1C(=O)COc1ccc(F)cc1 (stereo not shown)", "experimental_value": 80}
{"molecule": "CN(C)C(=O)C1Cc2ccccc2N1C(=O)COc1ccc(Cl)cc1 (stereo not shown)", "experimental_value": 5400}
{"molecule": "CNC(=O)C1Cc2ccccc2N1C(=O)COc1ccc(C)cc1 (stereo not shown)", "experimental_value": 30}
{"molecule": "CNC(=O)C1Cc2ccccc2N1C(=O)COc1cccc(OC)c1 (stereo not shown)", "experimental_value": 450}

Query block: Supply recorded EC50 for CNC(=O)C1Cc2ccccc2N1C(=O)Cc1ccc(F)c(F)c1 (stereo not shown) here.
Result block: 110

Query block: Supply recorded EC50 for CCNC(=O)C1Cc2ccccc2N1C(=O)COc1ccc(Cl)cc1 (stereo not shown) here.
Result block: 90

Query block: Supply recorded EC50 for CNC(=O)[C@H]1Cc2ccccc2N1C(=O)Cc1ccc(F)cc1 here.
Result block: 50

Query block: Supply recorded EC50 for CNC(=O)C1Cc2c(cc(F)c(F)c2F)N1C(=O)COc1ccc(Cl)cc1 (stereo not shown) here.
Result block: 70

Query block: Supply recorded EC50 for CNC(=O)C1Cc2ccccc2N1C(=O)Cc1ccc(C(C)C)cc1 (stereo not shown) here.
Result block: 770

###

Examples of compounds with documented microsomal intrinsic clearance, human follow.
test: Microsomal intrinsic clearance (Clint), human; type: in vitro ADME; conditions: human liver microsomes, 0.5 μM compound
Report only the number, with the unit mL min^–1 g^–1 understood.

{"compound": "CNC(=O)C1Cc2ccccc2N1C(=O)COc1ccccc1 (stereo not shown) [Compound 31]", "quantity_unit": "mL min^–1 g^–1", "microsomal intrinsic clearance, human": 1.4}
{"compound": "CNC(=O)C1Cc2c(cc(F)c(F)c2F)N1C(=O)COc1ccc(Cl)cc1 (stereo not shown) [Compound 59]", "quantity_unit": "mL min^–1 g^–1", "microsomal intrinsic clearance, human": 4.3}
{"compound": "CNC(=O)C1Cc2cc(F)ccc2N1C(=O)COc1ccc(Cl)cc1 (stereo not shown) [Compound 54]", "quantity_unit": "mL min^–1 g^–1", "microsomal intrinsic clearance, human": 1.6}

Query block: Supply recorded microsomal intrinsic clearance, human for CNC(=O)C1Cc2ccccc2N1C(=O)COc1ccc(Cl)c(F)c1 (stereo not shown) [Compound 29] here.
Result block: 3.3

Query block: Supply recorded microsomal intrinsic clearance, human for CNC(=O)C1Cc2cc(F)c(F)cc2N1C(=O)COc1ccc(F)cc1 (stereo not shown) [Compound 57] here.
Result block: 1.9

Query block: Supply recorded microsomal intrinsic clearance, human for CNC(=O)C1Cc2ccccc2N1C(=O)COc1ccc(C)cc1 (stereo not shown) [Compound 34] here.
Result block: 2.4

Query block: Supply recorded microsomal intrinsic clearance, human for CNC(=O)[C@H]1Cc2ccccc2N1C(=O)COc1ccc(F)cc1 [Compound 36] here.
Result block: 1.3

###

assay: in vitro; conditions: human, MRC-5 fibroblasts
Examples of compounds with documented EC50 at 69 h follow.

{"compound": "CNC(=O)C1N(C(=O)COc2ccc(Cl)cc2)c2ccccc2C1(C)C (stereo not drawn)", "experimental_value": "> 50 µM"}

Query block: Supply recorded EC50 at 69 h for CNC(=O)C1Cc2cc(Br)ccc2N1C(=O)COc1ccc(F)cc1 (stereo not drawn) here.
Result block: > 50 µM

Query block: Supply recorded EC50 at 69 h for CNC(=O)C1Cc2ccccc2N1C(=O)Cc1ccc(F)cc1 (stereo not drawn) here.
Result block: > 50 µM

###

assay: In vivo mouse pharmacokinetics; conditions: female, mouse, in vivo; IP, 10 mg/kg, NMRI mice
reported_metric: half-life
Please make sure the unit comes right after the number.

{"compound": "CNC(=O)C1Cc2cc(F)ccc2N1C(=O)COc1ccc(F)cc1 (stereo not drawn)", "half-life": "1.2 h"}
{"compound": "CNC(=O)[C@H]1Cc2ccccc2N1C(=O)Cc1ccc(F)cc1", "half-life": "0.5 h"}

Query block: Supply recorded half-life for CNC(=O)C1Cc2ccccc2N1C(=O)COc1ccc(F)cc1 (stereo not drawn) here.
Result block: 1.1 h

###

assay: Microsomal intrinsic clearance (Clint), mouse; assay type: in vitro ADME; settings: mouse liver microsomes, 0.5 μM compound
Criterion: mouse microsomal intrinsic clearance strictly under 2 mL min^–1 g^–1. Met: label 1. Not met: label 0.

Here are 5 molecules together with their reported answers.
{"molecule": "CNC(=O)C1Cc2ccccc2N1C(=O)COc1ccc(C)cc1 (stereo not drawn)", "discrete_label": "label 0"}
{"molecule": "CNC(=O)C1Cc2c(cc(F)c(F)c2F)N1C(=O)COc1ccc(Cl)cc1 (stereo not drawn)", "discrete_label": "label 0"}
{"molecule": "CNC(=O)C1Cc2cc(F)cc(F)c2N1C(=O)COc1ccc(F)cc1 (stereo not drawn)", "discrete_label": "label 0"}
{"molecule": "CNC(=O)[C@H]1Cc2ccccc2N1C(=O)COc1ccc(F)c(F)c1", "discrete_label": "label 0"}
{"molecule": "CNC(=O)C1Cc2ccccc2N1C(=O)COc1ccc(Cl)c(F)c1 (stereo not drawn)", "discrete_label": "label 0"}

Would you kindly look at the next entry?
Query block: hey, is mouse microsomal intrinsic clearance for CNC(=O)C1Cc2ccccc2N1C(=O)COc1ccc(Cl)c(Cl)c1 (stereo not drawn) lower than 2 mL min^–1 g^–1 or not?
Result block: label 0

###

system: bloodstream form T. brucei brucei; assay: T. b. brucei whole cell parasite (trypanosome growth) assay; type: cell-based, Trypanosoma brucei brucei; settings: Trypanosoma brucei, mean of two or more determinations; 69 h + 4 h resazurin; read-out: T. b. brucei EC50
reported_metric: EC50 (nM)
Report only the number, with the unit nM understood.

Examples with their reported EC50 follow.
{"molecule": "CNC(=O)C1Cc2ccccc2N1C(=O)COc1ccc2ccccc2c1 (stereo not shown) [Compound 18]", "reported_metric": "EC50", "experimental_value": 2900}
{"molecule": "CNC(=O)C1Cc2cc(Br)ccc2N1C(=O)COc1ccc(F)cc1 (stereo not shown) [Compound 60]", "reported_metric": "EC50", "experimental_value": 80}

Query block: Determine reported EC50 for CNC(=O)C1Cc2ccccc2N1C(=O)COc1ccc(Cl)c(Cl)c1 (stereo not shown) [Compound 30] ; test system: bloodstream form T. brucei brucei.
Result block: 400

Query block: Determine reported EC50 for CCOc1ccc(OCC(=O)N2c3ccccc3CC2C(=O)NC)cc1 (stereo not shown) [Compound 17] ; test system: bloodstream form T. brucei brucei.
Result block: 310

Query block: Determine reported EC50 for CNC(=O)[C@H]1Cc2ccccc2N1C(=O)Cc1ccc(Cl)c(F)c1 [Compound 45] ; test system: bloodstream form T. brucei brucei.
Result block: 80

Query block: Determine reported EC50 for CCCCNC(=O)C1Cc2ccccc2N1C(=O)COc1ccc(Cl)cc1 (stereo not shown) [Compound 50] ; test system: bloodstream form T. brucei brucei.
Result block: 19000

Query block: Determine reported EC50 for CNC(=O)C1Cc2ccccc2N1C(=O)Cc1ccc(C(F)(F)F)cc1 (stereo not shown) [Compound 42] ; test system: bloodstream form T. brucei brucei.
Result block: 100

Query block: Determine reported EC50 for CNC(=O)[C@H]1Cc2cc(F)ccc2N1C(=O)COc1ccc(F)cc1 [Compound 56] ; test system: bloodstream form T. brucei brucei.
Result block: 40

Query block: Determine reported EC50 for CNC(=O)C1Cc2ccccc2N1C(=O)Cc1ccc(Cl)cc1 (stereo not shown) [Compound 40] ; test system: bloodstream form T. brucei brucei.
Result block: 80

Query block: Determine reported EC50 for CNC(=O)[C@H]1Cc2ccccc2N1C(=O)COc1ccc(F)cc1 [Compound 36] ; test system: bloodstream form T. brucei brucei.
Result block: 40

Query block: Determine reported EC50 for O=C(NC1CC1)C1Cc2ccccc2N1C(=O)COc1ccc(Cl)cc1 (stereo not shown) [Compound 51] ; test system: bloodstream form T. brucei brucei.
Result block: 410

Query block: Determine reported EC50 for CNC(=O)C1Cc2ccccc2N1C(=O)COc1ccccc1 (stereo not shown) [Compound 31] ; test system: bloodstream form T. brucei brucei.
Result block: 40

Query block: Determine reported EC50 for [2H]c1c([2H])c([2H])c(OCC(=O)N2c3ccccc3C[C@@H]2C(=O)NC)c([2H])c1[2H] [Compound 38] ; test system: bloodstream form T. brucei brucei.
Result block: 50

Query block: Determine reported EC50 for CNC(=O)C1Cc2ccccc2N1C(=O)Cc1ccccc1 (stereo not shown) [Compound 21] ; test system: bloodstream form T. brucei brucei.
Result block: 220

Query block: Determine reported EC50 for CNC(=O)C1Cc2cc(F)c(F)cc2N1C(=O)COc1ccc(F)cc1 (stereo not shown) [Compound 57] ; test system: bloodstream form T. brucei brucei.
Result block: 90

Query block: Determine reported EC50 for CNC(=O)C1N(C(=O)COc2ccc(Cl)cc2)c2ccccc2C1(C)C (stereo not shown) [Compound 63] ; test system: bloodstream form T. brucei brucei.
Result block: 920
